Where do the numbers come from? From the supplement of paper PMC8617591.

- System: Mycobacterium tuberculosis Erdman (autoluminescent)
- Test details: AUC25, normalised area under dose response up to IC25 (fraction (0-1)); higher = more potent at low dose
- Experimental setup: in vitro model: butyrate; time point: constant (~7 days, model-specific)

{"columns": ["Molecule", "AUC25"],
 "data": [
  ["O=[N+]([O-])c1cn2c(n1)OC[C@@H](OCc1ccc(OC(F)(F)F)cc1)C2 [pretomanid] + NC(=O)c1cnccn1 [pyrazinamide]", 0.115],
  ["CC(C)/N=c1\\cc2n(-c3ccc(Cl)cc3)c3ccccc3nc-2cc1Nc1ccc(Cl)cc1 [clofazimine] + NC(=O)c1cnccn1 [pyrazinamide]", 0.116],
  ["COc1nc2ccc(Br)cc2cc1[C@@H](c1ccccc1)[C@@](O)(CCN(C)C)c1cccc2ccccc12 [bedaquiline] + NC(=O)c1cnccn1 [pyrazinamide]", 0.124],
  ["CC(C)/N=c1\\cc2n(-c3ccc(Cl)cc3)c3ccccc3nc-2cc1Nc1ccc(Cl)cc1 [clofazimine] + CC(=O)NC[C@H]1CN(c2ccc(N3CCOCC3)c(F)c2)C(=O)O1 [linezolid]", 0.113],
  ["COc1nc2ccc(Br)cc2cc1[C@@H](c1ccccc1)[C@@](O)(CCN(C)C)c1cccc2ccccc12 [bedaquiline] + CO[C@H]1/C=C/O[C@@]2(C)Oc3c(C)c(O)c4c(O)c(c(/C=N/N5CCN(C6CCCC6)CC5)c(O)c4c3C2=O)NC(=O)/C(C)=C\\C=C\\[C@H](C)[C@H](O)[C@@H](C)[C@@H](O)[C@@H](C)[C@H](OC(C)=O)[C@@H]1C [rifapentine]", 0.0889],
  ["NNC(=O)c1ccncc1 [isoniazid] + CO[C@H]1/C=C/O[C@@]2(C)Oc3c(C)c(O)c4c(O)c(c(/C=N/N5CCN(C6CCCC6)CC5)c(O)c4c3C2=O)NC(=O)/C(C)=C\\C=C\\[C@H](C)[C@H](O)[C@@H](C)[C@@H](O)[C@@H](C)[C@H](OC(C)=O)[C@@H]1C", 0.0724],
  ["CC[C@@H](CO)NCCN[C@@H](CC)CO [ethambutol] + NNC(=O)c1ccncc1 [isoniazid]", 0.075],
  ["CC[C@@H](CO)NCCN[C@@H](CC)CO [ethambutol] + COc1c(N2C[C@@H]3CCCN[C@@H]3C2)c(F)cc2c(=O)c(C(=O)O)cn(C3CC3)c12 [moxifloxacin]", 0.0864],
  ["NC(=O)c1cnccn1 [pyrazinamide] + CO[C@H]1/C=C/O[C@@]2(C)Oc3c(C)c(O)c4c(O)c(c(/C=N/N5CCN(C6CCCC6)CC5)c(O)c4c3C2=O)NC(=O)/C(C)=C\\C=C\\[C@H](C)[C@H](O)[C@@H](C)[C@@H](O)[C@@H](C)[C@H](OC(C)=O)[C@@H]1C", 0.109]
]}
